The reported measurements were obtained from paper PMC9911399.

Molecular target: T1, RBFOX1 RRM (Homo sapiens, UniProt Q9NWB1 109-208)
T1 sequence: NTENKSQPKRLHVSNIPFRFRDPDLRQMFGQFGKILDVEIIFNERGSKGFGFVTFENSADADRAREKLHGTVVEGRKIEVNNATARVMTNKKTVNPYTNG
Experiment: EMSA; HiTS-Eq, 1 nM pool, 10 min; buffer printed only for the single-RNA assays: 10 mM Tris pH 7.5, 150 mM NaCl, 3.4 mM EDTA, 0.001% NP-40, 30 C
Conditions: tags: His6 N-terminal (pET28a); label: 5' 32P
Over roughly 16,000 sequences, “ka relative to ugcaugu” has its median near 0.0091; the highest 2% begin near 0.032. The sample holds the highest values, similar sequences and a random draw of the others, so the mix is not that of the screen.
Reported binding signal is given for each of the following binders.
Assay Metric: binding signal

# Binder, Obs Value
rows = [
    ("GCCAUCC (DNA:RNA) RNA: GGGAGACCGGAAUUCAGAUUGUCCGCCAUCCUUAAAUCCCGUCGUAGCCACCA DNA 1: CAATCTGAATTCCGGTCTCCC DNA 2: TGGTGGCTACGACGGGATT", "0.00701 KA relative to UGCAUGU"),
    ("ACGCCGU (DNA:RNA) RNA: GGGAGACCGGAAUUCAGAUUGUCCACGCCGUUUAAAUCCCGUCGUAGCCACCA DNA 1: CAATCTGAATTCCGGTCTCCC DNA 2: TGGTGGCTACGACGGGATT", "0.00555 KA relative to UGCAUGU"),
    ("GUUGCGA (DNA:RNA) RNA: GGGAGACCGGAAUUCAGAUUGUCCGUUGCGAUUAAAUCCCGUCGUAGCCACCA DNA 1: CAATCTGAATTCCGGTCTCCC DNA 2: TGGTGGCTACGACGGGATT", "0.0206 KA relative to UGCAUGU"),
    ("AAGCACC (DNA:RNA) RNA: GGGAGACCGGAAUUCAGAUUGUCCAAGCACCUUAAAUCCCGUCGUAGCCACCA DNA 1: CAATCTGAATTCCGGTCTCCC DNA 2: TGGTGGCTACGACGGGATT", "0.00479 KA relative to UGCAUGU"),
    ("AAGCCCG (DNA:RNA) RNA: GGGAGACCGGAAUUCAGAUUGUCCAAGCCCGUUAAAUCCCGUCGUAGCCACCA DNA 1: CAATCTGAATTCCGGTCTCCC DNA 2: TGGTGGCTACGACGGGATT", "0.00982 KA relative to UGCAUGU"),
    ("AGCGCCC (DNA:RNA) RNA: GGGAGACCGGAAUUCAGAUUGUCCAGCGCCCUUAAAUCCCGUCGUAGCCACCA DNA 1: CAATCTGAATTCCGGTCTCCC DNA 2: TGGTGGCTACGACGGGATT", "0.00884 KA relative to UGCAUGU"),
    ("AAGCACG (DNA:RNA) RNA: GGGAGACCGGAAUUCAGAUUGUCCAAGCACGUUAAAUCCCGUCGUAGCCACCA DNA 1: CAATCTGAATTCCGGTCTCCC DNA 2: TGGTGGCTACGACGGGATT", "0.0333 KA relative to UGCAUGU"),
    ("ACUCUUU (DNA:RNA) RNA: GGGAGACCGGAAUUCAGAUUGUCCACUCUUUUUAAAUCCCGUCGUAGCCACCA DNA 1: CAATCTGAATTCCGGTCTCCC DNA 2: TGGTGGCTACGACGGGATT", "0.00357 KA relative to UGCAUGU"),
    ("ACUCUUG (DNA:RNA) RNA: GGGAGACCGGAAUUCAGAUUGUCCACUCUUGUUAAAUCCCGUCGUAGCCACCA DNA 1: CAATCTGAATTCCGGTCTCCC DNA 2: TGGTGGCTACGACGGGATT", "0.0078 KA relative to UGCAUGU"),
]
